- testSystem: EGFR (Homo sapiens)
- Construct: tested them in a model HMEC cell system; endogenous in cells; host or cells: 184A1 human mammary epithelial cells (HMECs)
- testName: Cyclic polypeptide inhibition of EGFR phosphorylation in model HMEC cell system
- Assay type: cell-based
- measurementContext: biotinylated cyclic polypeptide
readoutKind: Peptide Inhibition

> print(dat)
                             sequencerecord  result
1    CRNVSRGREC [Biotin-GCRNVSRGRECG-CONH2]     Yes
2  LYNPTTYQMD [Biotin-GCGLYNPTTYQMDGCG-CONH2]      No
3    CAHYIDGPHC [Biotin-GCAHYIDGPHCG-CONH2]     Yes
4    LVWKYADAG [Biotin-GCLVWKYADAGCG-CONH2]     Yes
